B1: Coiled-coil domain-containing protein 33 (Homo sapiens), Q8N5R6-5 (parent)
chain: MGEPGPPSPPAPKAAPGLIDSFSEMNNYRRAMQKMAEDILSLRRQASILEGENRILRSRLAQQEEEEGQGKASEAQNTVSMKQKLLLSELDMKKLRDRVQHLQNELIRKNDREKELLLLYQAQQPQAALLKQYQGKLQKMKALEETVRHQEKVIEKMERVLEDRLQDRSKPPPLNRQQGKPYTGFPMLSASGLPLGSMGENLPVELYSVLLAENAKLRTELDKNRHQQAPIILQQQALPVDPGELGAGGDLTERLQETHGPGHSECTETLPAQDLLSGTSDKFNLLAKLEHAQSRILSLESQLEDSARRWGREKQDLATRLQEQEKGFRHPSNSIIIEQPVSDPPGVAPRGSGGGAGSHRTPKVTGP

Variants of: B1
Condition Parameters: with smad3_human SMAD3, P84022
Sequence (P84022 whole entry, looked up): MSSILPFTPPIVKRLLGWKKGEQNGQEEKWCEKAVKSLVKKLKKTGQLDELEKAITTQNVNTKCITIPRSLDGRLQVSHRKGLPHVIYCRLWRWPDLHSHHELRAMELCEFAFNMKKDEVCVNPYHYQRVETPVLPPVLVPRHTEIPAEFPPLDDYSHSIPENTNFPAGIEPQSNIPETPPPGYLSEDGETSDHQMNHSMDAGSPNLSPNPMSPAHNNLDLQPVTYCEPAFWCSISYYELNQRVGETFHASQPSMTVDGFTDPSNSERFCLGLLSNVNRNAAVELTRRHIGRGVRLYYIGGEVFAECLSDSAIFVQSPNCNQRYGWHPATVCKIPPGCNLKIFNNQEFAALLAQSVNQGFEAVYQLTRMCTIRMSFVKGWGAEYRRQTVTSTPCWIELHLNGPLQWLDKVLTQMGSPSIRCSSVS

Variant Descriptor: M25V
effect of a mutation on the interaction: with no effect

Variant Descriptor: R30L
effect of a mutation on the interaction: with no effect

Variant Descriptor: G196R
effect of a mutation on the interaction: with no effect
